Tested on: CoA-IT
Experiment: Assay (b): microsomal CoA-IT activity assay
Format: biochemical, human
Details: at concentrations up to 100 μM; U937 microsomes
Description: The following is a method to measure CoA-IT activity and the effects of compounds on CoA-IT activity. […] CoA-IT activity was measured in 1.5 ml centrifuge tubes in a total volume of 100 ul. […] 1-alkyl-2-acyl-GPC, was scraped and quantified by liquid scintillation spectroscopy. […]
observation-type: effect on CoA-IT activity

Cc1cc(C(C)(C)C)c(O)c(C(C)(C)C)c1    no effect
COc1ccc2c(c1)c(CC(=O)O)c(C)n2C(=O)c1ccc(Cl)cc1    no effect
O=S1(=O)CCn2c1nc(-c1ccc(F)cc1)c2-c1ccncc1    no effect
COc1ccc2cc([C@H](C)C(=O)O)ccc2c1    no effect

stdin: Consider the molecule shown here: `Fc1ccc(-c2nc3n(c2-c2ccncc2)CCS3)cc1` What is its recorded effect on CoA-IT activity?
stdout: no effect
